Molecular target: T1, human GIPR (human, UniProt P48546 22-466)
T1 sequence (looked up): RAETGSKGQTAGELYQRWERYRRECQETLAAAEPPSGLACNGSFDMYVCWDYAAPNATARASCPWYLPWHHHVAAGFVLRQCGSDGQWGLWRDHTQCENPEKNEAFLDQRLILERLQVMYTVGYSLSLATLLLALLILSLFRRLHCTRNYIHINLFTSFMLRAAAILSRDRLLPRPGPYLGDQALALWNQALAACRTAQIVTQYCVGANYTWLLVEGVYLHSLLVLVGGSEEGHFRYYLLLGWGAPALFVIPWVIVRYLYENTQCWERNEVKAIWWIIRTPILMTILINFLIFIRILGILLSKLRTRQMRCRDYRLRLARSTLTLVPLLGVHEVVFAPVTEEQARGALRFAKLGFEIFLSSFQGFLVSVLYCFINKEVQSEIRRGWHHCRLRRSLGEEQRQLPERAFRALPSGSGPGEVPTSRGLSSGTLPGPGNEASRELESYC
Assay: cell-based or functional assay
Square brackets hold non-standard residues; d marks the D form. Side chains are listed from the residue outwards. Phe(2-F) = N[C@@H](Cc1ccccc1F)C(=O)O; αMeF = C[C@](N)(Cc1ccccc1)C(=O)O; Iva = CC[C@](C)(N)C(=O)O; Oda = not defined here; Aib = CC(C)(N)C(=O)O
assay-metric: Agonist activity (EC50), Cre-luc reporter assay (nM)

binder | observed-measurement
Me-Y[Aib]EGT[αMeF]TSDK([Gly-Gly-Gly-Gly-Pal])[Aib]I[Aib]LDKQRQ[Iva]EFVRHLLNK[Aib]TRQRY-NH2 | 0.068
H-Y[Aib]EGT[αMeF]TSDK([Gly-Gly-Gly-Gly-Pal])[Aib]I[Aib]LDKQRQ[Iva]EFVRHLLNK[Aib]TRQRY-NH2 | 0.068
H-Y[Aib]EGT[αMeF]TSDK([Gly-Gly-Gly-Gly-Oda])[Aib]I[Aib]LDKQRQ[Iva]EFVRHLLNK[Aib]TRQR[Phe(2-F)]-NH2 (reading uncertain; also: printed as H-Tyr-Aib-Glu-Gly-Thr-αMePhe-Thr-Ser-Asp-Lys(-Gly-Gly-Gly-Gly-Oda)-Aib-Ile-Aib-Leu-Asp-Lys-Gln-Arg-Gln-Iva-Glu-Phe-Val-Arg-His-Leu-Leu-Asn-Lys-Aib-Thr-Arg-Gln-Arg-Phe(2-F)-NH2) | 0.41
